- test: CREB reporter modulators under forskolin, primary screen, cell-based, PC12, CRE-LacZ reporter, forskolin-stimulated (AID 1146);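 also: PC12 cells with 6xCRE LacZ reporter stimulated by forskolin 10 µM; beta-galactosidase reporter signal reflecting CREB driven transcription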
- setup_conditions: luminescence, 4.5 h, higher = more signal, called active from +8 up or from −8 down
endpoint_name: z-score
No unit in the answer, only the number.

Inquiry: # lookup: z-score of C=CCOC(=O)[C@H]1[C@@H]2C(=O)O[C@@H](c3ccccc3)[C@@H](c3ccccc3)N2[C@@H](c2ccc(OCCOC(=O)[C@H]3C[C@H]4C(=O)N5CCC[C@H]5C(=O)N4[C@H]3c3ccc(O)cc3)cc2)[C@]12C(=O)Nc1ccccc12
Reply text: -0.702

Inquiry: # lookup: z-score of COCCOC(=O)N1C(=O)[C@@]2(c3cc(C#CC4=CCCCC4)ccc31)[C@H](C(=O)Nc1nc3ccccc3s1)[C@H]1C(=O)O[C@H](c3ccccc3)[C@H](c3ccccc3)N1[C@@H]2c1ccccc1OCCO
Reply text: -1.09

====

Consider the following molecules; for each one, report its z-score.
- test: CREB reporter modulators without forskolin, primary screen, cell-based, PC12, CRE-LacZ reporter, unstimulated (AID 1145)
- setup_conditions: no forskolin, luminescence, 4.5 h, higher = more signal, called active from +8 up or from −8 down
No unit in the answer, only the number.

Inquiry: # lookup: z-score of O=C1O[C@H](c2ccccc2)[C@H](c2ccccc2)N2[C@H]1[C@@H](C(=O)O)[C@]1(C(=O)Nc3ccc(C#CC4=CCCCC4)cc31)[C@H]2c1ccccc1OCCO
Reply text: 17.1

Inquiry: # lookup: z-score of CCCC[C@@H]1C[C@H]1[C@@H](NC(=O)c1ccco1)c1ccc(Cl)cc1
Reply text: -0.561

Inquiry: # lookup: z-score of O=C1OCCC/C=C\[C@H]2OC34C=CCN(Cc5ccccc5)C(=O)[C@H]3N(CCCCCCO)C(=O)[C@@H]4C12 (stereo partly specified)
Reply text: 1.01

Inquiry: # lookup: z-score of CCOC1=C2C(CN(S(=O)(=O)c3ccc(C)cc3)C2c2ccc(C)cc2)C2C(=O)N(c3ccccc3)C(=O)C2C1 (stereo unspecified)
Reply text: -0.275

Inquiry: # lookup: z-score of CCOC(=O)C[C@H]1[C@H](OC(=O)c2cc3ccccc3oc2=O)[C@@H](NC(=O)C2CCCCC2)c2cc(OCCCO)ccc2N1C(=O)c1ccccc1
Reply text: 11

Inquiry: # lookup: z-score of O=C1c2ccccc2[C@@]2(Cc3ccccc3N(CC(F)(F)F)C2=O)[C@H](c2ccc(CO)cc2)N1Cc1ccccc1Cl
Reply text: -0.141

====

- assayed_target: Fibroblast growth factor 10 (Homo sapiens)
- test: FGF10 binders on small-molecule microarrays, primary screen, biochemical, small-molecule microarray, 635 nm fluorescence (AID 1102)
- setup_conditions: FGF10 binding, fluorescence 635 nm, higher = more signal
Consider the following compounds; for each one, report its composite z-score.

Inquiry: # lookup: composite z-score of COC(=O)[C@@]1(Cc2ccccc2)[C@H]2c3cc(C(=O)N4CCCC4)n(Cc4nc5ccccc5[nH]4)c3C[C@H]2CN1C(=O)c1ccccc1
Reply text: 0.0471

Inquiry: # lookup: composite z-score of COC(=O)C(CC#Cc1ccc2c(c1)[C@]1(C(=O)N2)[C@H](C(=O)O)[C@H]2C(=O)O[C@H](c3ccccc3)[C@H](c3ccccc3)N2[C@@H]1c1ccc(O)cc1)C(=O)OC
Reply text: 0.284

Inquiry: # lookup: composite z-score of O=C1O[C@@H](c2ccccc2)[C@@H](c2ccccc2)N2[C@@H](c3ccc(OCCO)cc3)[C@]3(C(=O)Nc4ccccc43)[C@@H](C(=O)NC[C@H](O)c3ccccc3)[C@H]12
Reply text: 0.55

Inquiry: # lookup: composite z-score of COc1ccc([Si](C)(C)[C@H]2[C@H](CCO)O[C@@]3(C(=O)N(C)c4c(Br)cc(C)cc43)[C@@H]2C)cc1
Reply text: 0.333

Inquiry: # lookup: composite z-score of OC([C@@H]1CC(c2ccccc2)=NO1)[C@H]1CC(c2ccccc2)=NO1 (some centres not stated)
Reply text: 0.0725

Inquiry: # lookup: composite z-score of C=CCOC(=O)[C@@H]1[C@H]2C(=O)O[C@H](c3ccccc3)[C@H](c3ccccc3)N2[C@H](c2ccc(OCCOC(=O)[C@@H]3C[C@@H]4C(=O)N[C@@H](CCCC[N+](C)(C)C)C(=O)N4[C@@H]3c3cccc(OCCO)c3)cc2)[C@@]12C(=O)Nc1ccc(I)cc12
Reply text: 0.591

Inquiry: # lookup: composite z-score of CCCCc1cn(C[C@H](Cc2ccccc2)NC(=O)N[C@H](CO)CCc2oc(C(C)=O)c(C(=O)OC)c2C(=O)OC)nn1
Reply text: 1.04

Inquiry: # lookup: composite z-score of COCCOC(=O)N1C(=O)[C@@]2(c3cc(C#Cc4ccc(OC)cc4)ccc31)[C@H](c1ccc(O)cc1)N1[C@H](c3ccccc3)[C@H](c3ccccc3)OC(=O)[C@H]1[C@@H]2C(=O)NC[C@H](O)c1ccccc1
Reply text: 1.42

Inquiry: # lookup: composite z-score of COc1ccc([Si](C)(C)[C@@H]2[C@@H](CCO)O[C@]3(C(=O)N(Cc4ccc(N5C(=O)COc6ccccc65)cc4)c4ccccc43)[C@H]2C)cc1
Reply text: 0.808

Inquiry: # lookup: composite z-score of COc1ccc(C(O)C2C=CC3C(=O)N(c4ccccc4)C(=O)C3N2Nc2ccccc2F)cc1OCc1ccccc1 (configuration not stated)
Reply text: 0.771

Inquiry: # lookup: composite z-score of COC(=O)[C@@]1(Cc2ccccc2)[C@H]2c3cc(C(=O)N4CCCC4)n(CC4CC4)c3C[C@H]2CN1C(=O)c1ccccc1
Reply text: 0.596

Inquiry: # lookup: composite z-score of COc1ccc(CCNC(=O)[C@@H]2c3ccccc3C(=O)N(C3Cc4ccccc4C3)[C@H]2c2ccc(CO)cc2)cc1
Reply text: 0.0846

Inquiry: # lookup: composite z-score of C=CC[C@]1(C(=O)N2CCCCC2)N=C(c2ccc(OCCCO)cc2)O[C@H]1c1ccccc1
Reply text: 0.228

Inquiry: # lookup: composite z-score of [N-]=[N+]=NCc1ccccc1[C@@H]1OC(c2ccc(OCCCO)cc2)=N[C@]1(CCS(=O)(=O)c1ccccc1)C(=O)NCc1ccccc1
Reply text: 1.25

Inquiry: # lookup: composite z-score of Cc1ccc(S[C@]2(C(=O)NC(C)C)CC(=O)N(Cc3ccccc3Cl)[C@@H]2c2ccc(CO)cc2I)cc1
Reply text: -1.05

Inquiry: # lookup: composite z-score of Cc1ccc(S[C@]2(C(=O)NCCN3CCOCC3)CC(=O)N(Cc3ccccc3)[C@@H]2c2ccc(CO)cc2I)cc1
Reply text: -1.61

Inquiry: # lookup: composite z-score of C=CCC(OC(C)=O)[C@@H]1[C@@H](N(Cc2ccc(-c3cccc(C(F)(F)F)c3)o2)C(=O)c2ccc(-c3ccccc3)cc2)c2cc(OCCCO)ccc2N1C(=O)c1ccc(-c2ccccc2)cc1 (some centres not stated)
Reply text: 0.269

Inquiry: # lookup: composite z-score of CN1C(=O)C2C=CC(C(O)c3cc(C(F)(F)F)cc(C(F)(F)F)c3)N(N3CCCCC3)C2C1=O (configuration not stated)
Reply text: 0.246

Inquiry: # lookup: composite z-score of CCOC(=O)C1=CCC(c2ccccc2)N(S(=O)(=O)CC[Si](C)(C)C)C1 (configuration not stated)
Reply text: -0.887

Inquiry: # lookup: composite z-score of COc1cc2c(cc1OC)CN(C(=O)[C@@H]1[C@H]3C(=O)O[C@H](c4ccccc4)[C@H](c4ccccc4)N3[C@H](c3ccc(O)cc3)[C@@]13C(=O)Nc1ccc(C#CC4(O)CCCCCC4)cc13)CC2
Reply text: 1.28

Inquiry: # lookup: composite z-score of COC(=O)[C@@]1(Cc2ccc(F)cc2)[C@H]2c3cc(C(=O)N(C)C)n(CC4CC4)c3C[C@H]2CN1C(=O)c1ccccc1
Reply text: 1.4

Inquiry: # lookup: composite z-score of [N-]=[N+]=NCc1ccccc1[C@@H]1OC(c2ccc(OCCCO)cc2)=N[C@]1(Cc1ccccc1N=[N+]=[N-])C(=O)N1CCOCC1
Reply text: 1.33

Inquiry: # lookup: composite z-score of CCOC(=O)[C@H]1CC=C2CC1C(=O)N1CCC[C@@H]1[C@@H]2O[Si](C)(C)C(C)(C)C (some centres not stated)
Reply text: -0.997

Inquiry: # lookup: composite z-score of CC(CO)N1C(=O)[C@@H]2C3C(=O)OCCC/C=C\[C@H]3OC23C=CCN(c2ccc4ccccc4c2)C(=O)[C@@H]13 (some centres not stated)
Reply text: -1.01

Inquiry: # lookup: composite z-score of CCCN1C(=O)[C@]2(CCS(=O)(=O)c3ccccc3)N=C(c3ccc(OCCCO)cc3)O[C@@H]2c2ccccc21
Reply text: 0.533

Inquiry: # lookup: composite z-score of CCCC[C@H]1OB(O)C[C@H]2C1=C(COc1ccccc1)C[C@H]1C(=O)N(C)C(=O)[C@H]12
Reply text: 0.429

Inquiry: # lookup: composite z-score of O=C(NCc1ccccc1)[C@@]1(CCS(=O)(=O)c2ccccc2)N=C(c2ccc(OCCCO)cc2)O[C@H]1c1ccccc1
Reply text: 1.28
